TEST_DETAILS: Selectivity index, ratio of TC50 for african green monkey (Cercopithecus aethiops) Vero cells to IC50 for Plasmodium falciparum D6
Format: toxicity, cell-based

{"COMPOUND": "C[C@H]1[C@@H](OCc2cc(O)cc(O[C@H]3O[C@@H]4O[C@@]5(C)CC[C@H]6[C@H](C)CC[C@@H]([C@H]3C)[C@@]46OO5)c2)O[C@@H]2O[C@@]3(C)CC[C@H]4[C@H](C)CC[C@@H]1[C@@]24OO3", "COMPARISON_OPERATOR": ">", "selectivity ratio": 2380}
{"COMPOUND": "C[C@H]1[C@@H](Oc2cccc(N[C@@H]3[C@H](C)O[C@@H]4O[C@@]5(C)CC[C@H]6[C@H](C)CC[C@@H]3[C@@]46OO5)c2)O[C@@H]2O[C@@]3(C)CC[C@H]4[C@H](C)CC[C@@H]1[C@@]24OO3", "COMPARISON_OPERATOR": ">", "selectivity ratio": 1290}
{"COMPOUND": "C[C@H]1[C@@H](OC[C@@H]2O[C@@H]2CO[C@H]2O[C@@H]3O[C@@]4(C)CC[C@H]5[C@H](C)CC[C@@H]([C@H]2C)[C@@]35OO4)O[C@@H]2O[C@@]3(C)CC[C@H]4[C@H](C)CC[C@@H]1[C@@]24OO3 (relative stereo)", "COMPARISON_OPERATOR": ">", "selectivity ratio": 164}
{"COMPOUND": "C[C@H]1[C@@H](OC/C=C\\CO[C@H]2O[C@@H]3O[C@@]4(C)CC[C@H]5[C@H](C)CC[C@@H]([C@H]2C)[C@@]35OO4)O[C@@H]2O[C@@]3(C)CC[C@H]4[C@H](C)CC[C@@H]1[C@@]24OO3", "COMPARISON_OPERATOR": "=", "selectivity ratio": 113}
{"COMPOUND": "C[C@H]1[C@@H](OCC(=O)CO[C@H]2O[C@@H]3O[C@@]4(C)CC[C@H]5[C@H](C)CC[C@@H]([C@H]2C)[C@@]35OO4)O[C@@H]2O[C@@]3(C)CC[C@H]4[C@H](C)CC[C@@H]1[C@@]24OO3", "COMPARISON_OPERATOR": "=", "selectivity ratio": 49}
{"COMPOUND": "C[C@H]1[C@@H](OCC(=O)CO)O[C@@H]2O[C@@]3(C)CC[C@H]4[C@H](C)CC[C@@H]1[C@@]24OO3", "COMPARISON_OPERATOR": ">", "selectivity ratio": 1700}
{"COMPOUND": "C=C[C@@H](CO[C@H]1O[C@@H]2O[C@@]3(C)CC[C@H]4[C@H](C)CC[C@@H]([C@H]1C)[C@@]24OO3)O[C@H]1O[C@@H]2O[C@@]3(C)CC[C@H]4[C@H](C)CC[C@@H]([C@H]1C)[C@@]24OO3", "COMPARISON_OPERATOR": "=", "selectivity ratio": 32}
{"COMPOUND": "C[C@H]1[C@@H](O)O[C@@H]2O[C@@]3(C)CC[C@H]4[C@H](C)CC[C@@H]1[C@@]24OO3 [ARTENIMOL]", "COMPARISON_OPERATOR": "=", "selectivity ratio": 95}
{"COMPOUND": "C[C@H]1[C@@H](OCC[C@H](O)CO[C@H]2O[C@@H]3O[C@@]4(C)CC[C@H]5[C@H](C)CC[C@@H]([C@H]2C)[C@@]35OO4)O[C@@H]2O[C@@]3(C)CC[C@H]4[C@H](C)CC[C@@H]1[C@@]24OO3", "COMPARISON_OPERATOR": ">", "selectivity ratio": 170}
